Origin of measurements: paper PMC12362585

target: H3R (Homo sapiens)
Sequence (Q9Y5N1 whole entry, species assumed): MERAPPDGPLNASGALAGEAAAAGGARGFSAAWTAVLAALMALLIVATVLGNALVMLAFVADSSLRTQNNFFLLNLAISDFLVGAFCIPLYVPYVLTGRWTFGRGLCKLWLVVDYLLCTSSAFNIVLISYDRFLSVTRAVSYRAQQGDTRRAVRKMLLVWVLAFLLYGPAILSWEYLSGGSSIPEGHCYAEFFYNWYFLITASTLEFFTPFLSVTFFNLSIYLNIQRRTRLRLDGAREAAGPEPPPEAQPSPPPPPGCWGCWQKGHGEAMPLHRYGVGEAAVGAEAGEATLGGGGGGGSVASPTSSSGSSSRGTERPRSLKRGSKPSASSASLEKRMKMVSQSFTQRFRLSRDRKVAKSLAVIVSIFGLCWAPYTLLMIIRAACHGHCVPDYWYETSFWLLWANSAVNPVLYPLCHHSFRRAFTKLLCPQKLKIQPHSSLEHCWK
Hi there, I'd appreciate the recorded IC50 for every entry that follows.

Before answering, review these 2 worked examples.
So for O=C([C@H]1C[C@@H]1c1ccc(F)cc1)N1CCN(C2CCCCCC2)CC1 [Compound 5] , the logged IC50 turned out to be > 1000 nM

So for O=C([C@H]1C[C@@H]1c1ccc(F)cc1)N1C[C@@H]2C[C@H]1CN2C1CCC1 [Compound 7] , the logged IC50 turned out to be > 1000 nM

Shift focus to the following entry.
So for [11CH3]NC(=O)c1ccc([C@H]2C[C@@H]2C(=O)N2CCN(C3CCC3)CC2)cc1 [AZD13153556, reference compound] , the logged IC50 turned out to be 23.5 nM
